Source of measurements: paper PMC12057363

PROTOCOL_DESCRIPTION: in vitro
DETAILS: human
ENDPOINT_NAME: CC50

[Q] Fill in the blank: the reported CC50 of CC(C)OC(=O)[C@H](C)N[P@](=O)(OC[C@H]1O[C@@H](n2ccc(=O)[nH]c2=O)[C@](C)(F)[C@@H]1O)Oc1ccccc1 is ____.
[A] > 100 µM

----------
PROTOCOL_DESCRIPTION: in vitro
DETAILS: human
ENDPOINT_NAME: CC50 (µM)
One number for each entry, in µM.

[Q] Fill in the blank: the reported CC50 of CC(C)OC(=O)[C@H](C)N[P@](=O)(OC[C@H]1O[C@@H](n2ccc(=O)[nH]c2=O)[C@](C)(F)[C@@H]1O)Oc1ccccc1 is ____.
[A] 85.6
